These data points were gathered from the NIST ThermoML archive (doi:10.1021/je400054m).

settings: Crystal 2; DTA
Classify: 1 when Triple point temperature is strictly less than 400 K; -1 when Triple point temperature is not.

compound: CCCCC(=O)[O-].[Li+] [lithium pentanoate]
answer label: 1
//
compound: CCCCCCCCCC(=O)[O-].[Li+] [lithium decanoate]
answer label: 1
//
compound: CCCCCCCCCCCC(=O)[O-].[Li+] [lithium dodecanoate]
answer label: 1
//
compound: CCCCCCC(=O)[O-].[Li+] [lithium heptanoate]
answer label: 1
//
compound: CCC(=O)[O-].[Li+] [propionic acid, lithium salt]
answer label: -1
//
compound: O=C[O-].[Li+] [lithium methanoate]
answer label: -1
//
compound: CCCCCCCCC(=O)[O-].[Li+] [lithium nonanoate]
answer label: 1
//
compound: CCCCCCCCCCC(=O)[O-].[Li+] [lithium undecanoate]
answer label: 1
